# Tested on: MCF7
# Method summary: In vitro antitumor activity of compound against MCF-7 cell line (human breast cancer cells)
# Assay type: functional, cell-based
# Conditions: Homo sapiens, MCF7
pIC50: −log10 of the molar value.
Property measured: pIC50

# input Supply pIC50 value. Item: COc1ccc(C(=O)OC2C(OC3C(O)COC(O[C@H]4CC5C6CC=C7C[C@@H](O)CC[C@]7(C)C6CC([C@H](C)C(O)CCC(C)C)[C@]5(C)[C@@H]4O)C3OC(C)=O)OCC(O)C2O)cc1 (stereo not given in full)
# output 5.75

a. COc1ccc(C(=O)OC2C(OC3C(O)COC(O[C@H]4CC5C6CC=C7C[C@@H](O)CC[C@]7(C)C6CC([C@H](C)C(C)=O)[C@]5(C)[C@@H]4O)C3OC(C)=O)OCC(O)C2O)cc1 (stereo not given in full)
b. COc1ccc(C(=O)OC2C(OC3C(O)COC(O[C@H]4CC5C6CC=C7C[C@@H](O)CC[C@]7(C)C6CC([C@H](C)CCCC(C)C)[C@]5(C)[C@@H]4O)C3OC(C)=O)OCC(O)C2O)cc1 (stereo not given in full)
c. COc1ccc(C(=O)OC2C(OC3C(O)COC(O[C@H]4CC5C6CC=C7C[C@@H](O)CC[C@]7(C)C6CC([C@H](C)C(=O)CCC(C)C)[C@]5(C)[C@@H]4O)C3OC(C)=O)OCC(O)C2O)cc1 (stereo not given in full)
d. CCCC(=O)[C@@H](C)C1CC2C(CC=C3C[C@@H](O)CC[C@@]32C)C2C[C@H](OC3OCC(O)C(OC4OCC(O)C(O)C4OC(=O)c4ccc(OC)cc4)C3OC(C)=O)[C@@H](O)[C@]21C (stereo not given in full)
# input Write the entries in order, lowest recorded pIC50 first. Form field (ranking): labels in requested order.
# output a, c, b, d
(a: 5.18, c: 6.57, b: 7.22, d: 7.70)
